# Target Or System: Receptor tyrosine-protein kinase erbB-2 (Homo sapiens, UniProt P04626)
# Sequence (P04626 whole entry): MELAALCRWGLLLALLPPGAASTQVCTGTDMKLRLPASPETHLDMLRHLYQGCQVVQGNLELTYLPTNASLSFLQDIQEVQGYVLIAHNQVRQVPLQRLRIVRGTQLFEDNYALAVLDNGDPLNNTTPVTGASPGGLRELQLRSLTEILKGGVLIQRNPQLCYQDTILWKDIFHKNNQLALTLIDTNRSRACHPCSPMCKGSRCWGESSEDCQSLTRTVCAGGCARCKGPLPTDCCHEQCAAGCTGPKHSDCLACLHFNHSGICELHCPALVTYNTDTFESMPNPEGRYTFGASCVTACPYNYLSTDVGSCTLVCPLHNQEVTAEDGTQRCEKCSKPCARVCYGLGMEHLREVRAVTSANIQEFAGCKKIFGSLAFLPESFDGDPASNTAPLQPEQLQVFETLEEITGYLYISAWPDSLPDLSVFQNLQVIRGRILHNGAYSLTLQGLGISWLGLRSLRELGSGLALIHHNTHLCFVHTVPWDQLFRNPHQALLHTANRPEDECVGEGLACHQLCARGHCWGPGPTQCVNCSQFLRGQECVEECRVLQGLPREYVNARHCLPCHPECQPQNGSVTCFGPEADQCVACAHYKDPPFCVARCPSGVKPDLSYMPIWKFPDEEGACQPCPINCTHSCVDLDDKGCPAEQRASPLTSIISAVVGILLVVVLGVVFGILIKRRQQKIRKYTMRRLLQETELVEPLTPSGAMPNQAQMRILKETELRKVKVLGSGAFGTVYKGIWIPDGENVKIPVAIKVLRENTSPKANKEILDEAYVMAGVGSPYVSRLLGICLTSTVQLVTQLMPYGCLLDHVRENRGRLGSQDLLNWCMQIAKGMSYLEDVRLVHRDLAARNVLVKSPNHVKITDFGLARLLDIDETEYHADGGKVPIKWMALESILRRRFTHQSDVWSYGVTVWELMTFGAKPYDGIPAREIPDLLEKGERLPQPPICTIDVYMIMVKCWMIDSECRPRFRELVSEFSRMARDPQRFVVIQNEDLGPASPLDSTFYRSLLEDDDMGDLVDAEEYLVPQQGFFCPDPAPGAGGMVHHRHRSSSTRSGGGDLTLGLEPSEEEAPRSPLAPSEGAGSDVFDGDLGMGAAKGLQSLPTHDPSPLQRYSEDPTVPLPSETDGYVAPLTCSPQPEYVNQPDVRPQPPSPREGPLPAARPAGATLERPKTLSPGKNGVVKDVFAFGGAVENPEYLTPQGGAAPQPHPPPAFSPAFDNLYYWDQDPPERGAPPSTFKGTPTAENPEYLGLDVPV
# Measurement Protocol: Binding affinity to recombinant HER2 (unknown origin) assessed as dissociation constant by SPR analysis
Residues, ends and D or L forms follow the SMILES beside them.
Below is a list of entries, each paired with its recorded Kd value.
Enter your answer as a number in µM; do not include the unit.

Study these solved cases before continuing.
Exam item: // Kd lookup, key: N=C(N)NCCC[C@H](NC(=O)CNC(=O)[C@H](Cc1c[nH]c2ccccc12)NC(=O)[C@H](CC(N)=O)NC(=O)[C@@H]1CCCN1C(=O)[C@@H](N)CC(N)=O)C(=O)N[C@@H](CO)C(=O)N[C@@H](Cc1c[nH]c2ccccc12)C(=O)N[C@@H](Cc1ccc(O)cc1)C(=O)N[C@@H](CC(N)=O)C(=O)N[C@@H](CCC(N)=O)C(=O)N[C@@H](CCCNC(=N)N)C(=O)N[C@@H](Cc1ccccc1)C(=O)N[C@@H](CCCCN)C(=O)O (H-NPNWGRSWYNQRFK-OH)
Marked response: 5.7

Exam item: Try the molecule CC[C@H](C)[C@H](NC(=O)[C@@H](N)CCCNC(=N)N)C(=O)N[C@@H](CCCCN)C(=O)N1CCC[C@H]1C(=O)N[C@@H](CCCNC(=N)N)C(=O)N[C@@H](CCCCN)C(=O)NCC(=O)N[C@@H](Cc1ccc(O)cc1)C(=O)N[C@H](C(=O)N[C@@H](CCCNC(=N)N)C(=O)O)[C@@H](C)O (H-RIKPRKGYTR-OH)
Marked response: 7.6

Exam item: Next record, please: N=C(N)NCCC[C@H](NC(=O)[C@H](CCC(N)=O)NC(=O)[C@H](CC(N)=O)NC(=O)[C@H](Cc1ccc(O)cc1)NC(=O)[C@H](Cc1c[nH]c2ccccc12)NC(=O)[C@H](CO)NC(=O)[C@H](Cc1ccc(O)cc1)NC(=O)CNC(=O)[C@H](Cc1c[nH]c2ccccc12)NC(=O)[C@H](CC(N)=O)NC(=O)[C@@H]1CCCN1C(=O)[C@@H](N)CC(N)=O)C(=O)N[C@@H](Cc1ccccc1)C(=O)N[C@H](C=O)CCCCN (H-NPNWGYSWYNQRFK-aldehyde)
Marked response: 14.3

Exam item: Then this molecule: N=C(N)NCCC[C@H](NC(=O)CNC(=O)[C@H](Cc1c[nH]c2ccccc12)NC(=O)[C@@H]1CCCN1C(=O)[C@@H]1CCCN1C(=O)[C@@H](N)CC(N)=O)C(=O)N[C@@H](CO)C(=O)N[C@@H](CCCNC(=N)N)C(=O)N[C@@H](Cc1ccc(O)cc1)C(=O)N[C@@H](CC(N)=O)C(=O)N[C@@H](CCC(N)=O)C(=O)N[C@@H](CCCNC(=N)N)C(=O)N[C@@H](Cc1ccccc1)C(=O)N[C@@H](CCCCN)C(=O)O (H-NPPWGRSRYNQRFK-OH)
Marked response: 12.3

Exam item: How about this molecule: N=C(N)NCCC[C@H](NC(=O)[C@H](CCC(N)=O)NC(=O)[C@H](CC(N)=O)NC(=O)[C@H](Cc1ccc(O)cc1)NC(=O)[C@H](CCCNC(=N)N)NC(=O)[C@H](CO)NC(=O)[C@H](Cc1c[nH]c2ccccc12)NC(=O)CNC(=O)[C@H](Cc1c[nH]c2ccccc12)NC(=O)[C@H](CC(N)=O)NC(=O)[C@@H]1CCCN1C(=O)[C@@H](N)CC(N)=O)C(=O)N[C@@H](Cc1ccccc1)C(=O)N[C@@H](CCCCN)C(=O)O (H-NPNWGWSRYNQRFK-OH)
Marked response: 9.89

Continuing:
Exam item: Any idea what Kd was measured for N=C(N)NCCC[C@H](NC(=O)[C@H](CCC(N)=O)NC(=O)[C@H](CC(N)=O)NC(=O)[C@H](Cc1ccc(O)cc1)NC(=O)[C@H](Cc1c[nH]c2ccccc12)NC(=O)[C@H](CO)NC(=O)[C@H](Cc1c[nH]c2ccccc12)NC(=O)CNC(=O)[C@H](Cc1c[nH]c2ccccc12)NC(=O)[C@H](CC(N)=O)NC(=O)[C@@H]1CCCN1C(=O)[C@@H](N)CC(N)=O)C(=O)N[C@@H](Cc1ccccc1)C(=O)N[C@@H](CCCCN)C(=O)O (H-NPNWGWSWYNQRFK-OH) ?
Marked response: 8.9

----------
# System: MDA-MB-231
# Measurement Protocol: Cytotoxicity against HER-negative human MDA-MB-231 cells assessed as inhibition of cell growth incubated for 48 hrs by MTT assay
# Assay type: functional, cell-based
# Details: MDA-MB-231, 48 h
Measurement Type: pIC50
In plain terms, pIC50 is the concentration in mol/L turned into minus its base-10 logarithm.

Exam item: Look at this compound and give its reported pIC50. CC[C@@]1(O)C(=O)OCc2c1cc1n(c2=O)Cc2cc3ccccc3nc2-1 [CAMPTOTHECIN]
Marked response: 5.97
